experimental-system: human recombinant ApoE4 (Homo sapiens, UniProt P02649, C130R)
Sequence (P02649 19-317 C130R): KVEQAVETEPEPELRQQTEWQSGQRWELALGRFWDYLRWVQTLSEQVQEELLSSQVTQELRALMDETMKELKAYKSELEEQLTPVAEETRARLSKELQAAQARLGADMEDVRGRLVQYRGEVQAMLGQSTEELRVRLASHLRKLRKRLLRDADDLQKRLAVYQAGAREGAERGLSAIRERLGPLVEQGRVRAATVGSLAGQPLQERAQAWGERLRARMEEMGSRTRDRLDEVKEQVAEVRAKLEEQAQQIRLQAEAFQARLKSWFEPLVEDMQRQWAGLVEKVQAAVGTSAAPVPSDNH
assay: Surface plasmon resonance (SPR) binding, ApoE4
measurement-parameters: Biacore T200
pKd: −log10 of the molar value.

compound: O=c1c(-c2ccc(O)cc2)coc2cc(O)cc(O)c12
pKd: < 4.00
//
compound: CC(C)=CCc1c(-c2ccc(O)cc2O)oc2c3c(cc(O)c2c1=O)OC(C)(C)C=C3
pKd: < 4.00
//
compound: Oc1ccc(C2=Cc3ccc(O)cc3OC2)cc1
pKd: < 4.00
//
compound: CC(C)=CCc1cc([C@@H]2CC(=O)c3ccc(O)c(CC=C(C)C)c3O2)ccc1O
pKd: 4.11
//
compound: CC(C)=CCc1cc2c(cc1O)O[C@H](c1ccc(O)cc1)CC2=O
pKd: 4.19
//
compound: CC(C)=CCc1c(-c2ccc(O)cc2O)oc2c(CC=C(C)C)c(O)cc(O)c2c1=O
pKd: < 4.00
//
compound: O=c1c(-c2ccc(O)cc2)coc2cc(O)ccc12
pKd: < 4.00
//
compound: COc1cc(O)c(CC=C(C)C)c2c1C(=O)CC(c1ccc(O)cc1)O2 (centres unmarked)
pKd: 4.40
